# assay_explanation: Plasma pharmacokinetics in male SD rats
# Assay type: in vivo
# protocol_conditions: male, SD, rat, plasma, intravenous, 2 mg/kg; read-out: Vdss
measured_endpoint: Vd (L/kg)
Respond numerically; units are L/kg and should not be typed.

Cc1cc(N2CCOc3ncnc(N)c3C2=O)cc(C)c1-c1cn(CC(F)(F)F)nc1C    1.49
O=C(O)C[C@H]1CC[C@H](c2ccc(-c3ccc(Nc4ccc(C(F)(F)F)nc4)cn3)cc2)CC1 [Pradigastat, reference compound]    0.15

Now consider a different compound.
Retrieve Vd measured for "Cc1cc(N2CCOc3ncnc(N)c3C2=O)cc(C)c1-c1ccc2ccn(CC(F)(F)F)c(=O)c2c1" and print it.
0.54

* * *

# system_tested: mouse DGAT1 (Mus musculus)
# Sequence (Q9Z2A7 1-498): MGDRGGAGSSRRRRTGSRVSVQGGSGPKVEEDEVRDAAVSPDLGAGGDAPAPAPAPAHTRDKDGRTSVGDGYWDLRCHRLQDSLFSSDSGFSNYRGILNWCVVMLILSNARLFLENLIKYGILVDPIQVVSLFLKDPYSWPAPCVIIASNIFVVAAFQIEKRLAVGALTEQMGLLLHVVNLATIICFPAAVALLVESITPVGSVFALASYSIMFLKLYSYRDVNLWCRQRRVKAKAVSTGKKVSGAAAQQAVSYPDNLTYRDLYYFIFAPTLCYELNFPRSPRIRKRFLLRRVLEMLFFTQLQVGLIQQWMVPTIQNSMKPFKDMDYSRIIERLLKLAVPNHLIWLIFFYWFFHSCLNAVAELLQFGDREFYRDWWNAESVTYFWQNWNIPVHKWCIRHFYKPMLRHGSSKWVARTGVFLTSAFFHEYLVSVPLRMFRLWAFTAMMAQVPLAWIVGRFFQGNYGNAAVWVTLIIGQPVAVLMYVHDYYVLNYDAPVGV
measured_endpoint: IC50 (µM)
Respond numerically; units are µM and should not be typed.

Retrieve IC50 measured for O=C(O)C[C@H]1CC[C@H](c2ccc(-c3ccc(Nc4ccc(C(F)(F)F)nc4)cn3)cc2)CC1 [Pradigastat, reference compound] and print it.
0.0302

* * *

# system_tested: DGAT1 (Homo sapiens)
# Sequence (O75907 1-488): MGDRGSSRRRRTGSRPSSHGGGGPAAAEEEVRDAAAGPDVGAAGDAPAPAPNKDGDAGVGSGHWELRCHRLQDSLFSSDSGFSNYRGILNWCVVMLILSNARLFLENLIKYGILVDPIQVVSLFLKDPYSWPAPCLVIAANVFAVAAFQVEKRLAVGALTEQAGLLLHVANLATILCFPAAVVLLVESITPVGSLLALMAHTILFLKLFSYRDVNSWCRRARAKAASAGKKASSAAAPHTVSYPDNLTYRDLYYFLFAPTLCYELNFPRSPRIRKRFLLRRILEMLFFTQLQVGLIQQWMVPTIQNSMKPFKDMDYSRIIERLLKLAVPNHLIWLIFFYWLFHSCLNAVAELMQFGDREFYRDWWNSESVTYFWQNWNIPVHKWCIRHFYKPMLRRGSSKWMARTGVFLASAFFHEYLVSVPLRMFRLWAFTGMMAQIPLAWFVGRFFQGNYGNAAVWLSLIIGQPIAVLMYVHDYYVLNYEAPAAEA
# assay_explanation: Human DGAT1 IC50 enzyme assay (Flashplate, 14C-labeled acyl-CoA)
# Type: biochemical
# Design: made in house
# protocol_conditions: first determination; read-out: hDGAT1 IC50(nM) First
measured_endpoint: IC50 (nM)
Respond numerically; units are nM and should not be typed.

# example entries with known answers
Cc1nn(CC(=O)O)cc1-c1ccc(N2CCOc3ncnc(N)c3C2=O)cc1Cl [Compound 36]    37.7
CC(C)Cn1cc(-c2ccc(N3C(=O)c4c(N)ncnc4OC[C@H]3C)cc2Cl)cn1 [Compound 96]    69.4
Cc1cc(N2CCOc3ncnc(N)c3C2=O)cc(C)c1-c1cn(CC(F)F)nc1C [Compound 43]    18.5
Cc1nn(CCC(=O)O)cc1-c1ccc(N2CCOc3ncnc(N)c3C2=O)cc1Cl [Compound 78]    69.2

Give IC50 for Cc1cc(N2CCOc3ncnc(N)c3C2=O)cc(C)c1-c1cnn(CCC(=O)O)c1 [Compound 70] tested on DGAT1 (Homo sapiens).
27.6

Give IC50 for CCc1cc(N2CCOc3ncnc(N)c3C2=O)ccc1N1CCN(CC(=O)O)C1=O [Compound 5] tested on DGAT1 (Homo sapiens).
51.6

Give IC50 for Cc1cc(N2CCOc3ncnc(N)c3C2=O)cc(Cl)c1N1CCN(CC(=O)O)C1=O [Compound 27] tested on DGAT1 (Homo sapiens).
69

Attribution: patent US9809604B2
